Test: MicroPET blood and normal organ uptake in T47D and MDA-MB-435 tumor-bearing nude mice
Settings: female, nude, mouse, liver, iv, total radioactivity, Liver uptake, average of eight mice, 0.5 h
Result type: tissue uptake at 0.5 h

Identify the reported tissue uptake at 0.5 h for the following entry. CSCC[C@H](NC(=O)[C@H](CC(C)C)NC(=O)[C@H](Cc1c[nH]cn1)NC(=O)CNC(=O)[C@@H](NC(=O)[C@H](C)NC(=O)[C@H](Cc1c[nH]c2ccccc12)NC(=O)[C@H](CCC(N)=O)NC(=O)CCCCCNC(=O)CC[C@H](NC(=S)Nc1ccc(C[C@H]2CN(CC(=O)O)CCN(CC(=O)O)CCN2CC(=O)O)cc1)C(=O)NCCCC[C@@H]1NC(=O)[C@@H](Cc2ccc(O)cc2)NC(=O)[C@H](CC(=O)O)NC(=O)CNC(=O)[C@H](CCCNC(=N)N)NC1=O)C(C)C)C(N)=O [^68Ga-NOTA-RGD-BBN, metal not drawn]
2.68 %ID/g
